assay: Antiviral activity against Human Immunodeficiency Virus by Reverse transcriptase (RT) assay in CEM-SS cells.
pIC50: −log10 of the molar value.
Endpoint: pIC50

## Input Name the recorded pIC50 of the item O=[N+]([O-])c1cccc(Cn2c(Br)nc3cc(Cl)c(Cl)cc32)c1 in your answer.
## Output < 4.49

----------
assay: Antiviral activity against Human Immunodeficiency Virus by Reverse transcriptase assay in CEM-SS cells
Endpoint: pIC50
Answers are plain numbers, as −log10 of the molar value.

{"Smiles repr": "Cc1cccc(Cn2c(Br)nc3cc(Cl)c(Cl)cc32)c1", "Measurement": 4.18}

Proceeding to the next compound to report its pIC50.
## Input Name the recorded pIC50 of the item Cc1cn([C@H]2C[C@H](N=[N+]=[N-])[C@@H](CO)O2)c(=O)[nH]c1=O in your answer.
## Output 8.51
